- test-system: Neurogenic locus notch homolog protein 2 (Homo sapiens)
- method: Notch2 binders on small-molecule microarrays, primary screen, biochemical, small-molecule microarray, 635 nm fluorescence, stem cell growth factors (AID 1073)
- assay-context: Notch2 binding, higher = more signal
value-kind: composite z-score

COCCOC(=O)N1C(=O)[C@@]2(c3ccccc31)[C@H](C(=O)Nc1nc3ccccc3s1)[C@H]1C(=O)O[C@H](c3ccccc3)[C@H](c3ccccc3)N1[C@@H]2c1ccc(OCCO)cc1    0.907
COc1cc2c(cc1O)C(C)N(Cc1cccc(OC(F)(F)F)c1)CC2 (centres undefined)    1.23
O=C(NCc1ccccc1)[C@]1(CCS(=O)(=O)c2ccccc2)N=C(c2ccc(OCCCO)cc2)O[C@@H]1c1ccccc1    1.68
C[C@]1(C(=O)NCc2ccccc2)c2ccccc2C(=O)N(Cc2ccc(OC(F)(F)F)cc2)[C@H]1c1ccc(CO)cc1    -0.323
C=C(CCCC)/C(=C/C[C@H](OC(C)=O)c1ccc(CO)o1)c1cnc2ccccc2c1    1.1
COc1ccc(CCNC(=O)[C@@H]2c3ccccc3C(=O)N(Cc3ccc(OC(F)(F)F)cc3)[C@H]2c2ccc(CO)cc2)cc1    0.0125
CN(C)C(=O)[C@]1(CCC(=O)OC(C)(C)C)N=C(c2ccc(OCCCO)cc2)O[C@@H]1c1ccccc1N=[N+]=[N-]    1.36
O=C1C=CC(=O)[C@@H]2CC(COc3ccccc3)=C3[C@@H](CCc4ccccc4)OB(O)C[C@@H]3[C@H]12    0.222
C=CCC(OC(C)=O)[C@@H]1[C@@H](N(Cc2ccc(-c3ccccc3)cc2)C(=O)Cc2ccc(F)cc2)c2cc(OCCCO)ccc2N1C(=O)c1ccc2ccccc2n1 (some centres undefined)    0.0329
COc1ccc(C(=O)Nc2cccc(CN3C(=O)[C@]4(O[C@H](CC(=O)N5CCC[C@H]5CO)[C@@H]([Si](C)(C)c5ccc(OC)cc5)[C@@H]4C)c4ccccc43)c2)cc1    0.135
CC(C)c1ccc(NN2C(C(O)c3cccc(O)c3)C=CC3C(=O)N(c4ccccc4)C(=O)C32)cc1 (centres undefined)    1.57
CN1C(=O)C2C(C1=O)C1C=C(CCCO)C2C(c2cccs2)N1C (centres undefined)    -0.508
COCCOC(=O)N1C(=O)[C@@]2(c3cc(C#CCCO)ccc31)[C@H](c1ccc(O)cc1)N1[C@H](c3ccccc3)[C@H](c3ccccc3)OC(=O)[C@H]1[C@@H]2C(N)=O    -0.982
O=C1O[C@@H](c2ccccc2)[C@@H](c2ccccc2)N2[C@@H](c3ccc(OCCO)cc3)[C@]3(C(=O)Nc4ccc(C#CC5=CCCCC5)cc43)[C@@H](C(=O)O)[C@H]12    1.48

====

- method: PSAC antagonists in infected red cells, primary screen, cell-based, P. falciparum Indochina, OD700, 18 h (AID 1157)
- assay-context: P. falciparum Indochina infected erythrocytes, osmotic lysis OD700, 18 h; higher = more signal, called active from +8 up or from −8 down
Recorded z-score, one value per entry.
value-kind: z-score

CC(C)(C)OC(=O)CC[C@@]1(C(=O)NCCN2CCOCC2)N=C(c2ccc(OCCCO)cc2)O[C@@H]1c1ccccc1    0.813
O=C/C=C/c1ccc2c(c1)OCO2    -2.47
CN(C)CCCCNC(=O)[C@H]1C[C@H]2C(=O)N[C@@H](Cc3ccccc3)C(=O)N2[C@H]1c1ccc(O)cc1    -0.512
[N-]=[N+]=NCc1ccccc1C[C@@]1(C(=O)NCC(O)CO)N=C(c2ccc(OCCCO)cc2)O[C@@H]1c1ccccc1CN=[N+]=[N-] (stereo not given in full)    2.24
CS(=O)(=O)CCOC(=O)C1=CC(c2ccc(CO)cc2)=CC(C2CC2)N(Cc2cc3c(cc2Br)OCO3)C=C1C(=O)OCCS(C)(=O)=O (stereo not given)    1.29
N#Cc1ccc(NN2C(C(O)c3cccs3)C=CC3C(=O)N(c4ccccc4)C(=O)C32)cc1 (stereo not given)    -0.741
COC(=O)[C@@]1(Cc2ccc(OC)cc2)[C@H]2c3cc(C(=O)N4CCCC4)n(Cc4cc(F)cc5c4OCOC5)c3C[C@H]2CN1C(=O)c1ccccc1    0.522
COC(=O)c1c(CC[C@@H](CO)NC(=O)N[C@@H](Cc2ccccc2)Cn2cc(C3(O)CCCCC3)nn2)oc(C(C)=O)c1C(=O)OC    0.312
C=C(COC)C(=O)CC[C@@H](OC(=O)c1cccnc1)c1ccc(CO)o1    0.038
COC(=O)[C@@]1(Cc2ccc(OC)cc2)[C@H]2c3cc(C(=O)N4CCCC4)n(Cc4ccccn4)c3C[C@H]2CN1C(=O)c1ccccc1    0.814
CC(C)N1CC=CC23O[C@@H]4C=CCOC(=O)[C@@H]4[C@H]2C(=O)N(CCO)[C@@H]3C1=O (stereo not given in full)    0.6
CN1CCC(CCCO)=CC1c1ccc(CN2CCCC2)cc1 (stereo not given)    -0.111
COC(=O)C(CC#Cc1ccc2c(c1)[C@]1(C(=O)N2)[C@H](c2ccc(OCCO)cc2)N2[C@H](c3ccccc3)[C@H](c3ccccc3)OC(=O)[C@H]2[C@@H]1C(=O)NC[C@H](O)c1ccccc1)C(=O)OC    0.664
CC(=O)NCCCC[C@@H]1NC(=O)[C@@H]2C[C@H](C(=O)NCCCCCCNC(=O)CS)[C@H](c3ccc(O)cc3)N2C1=O    0.0805
CC=CC(O)C1C=CC2C(=O)N(c3ccccc3)C(=O)C2N1Nc1ccc(C(C)C)cc1 (stereo not given)    1.68
COC(=O)[C@@]1(Cc2ccccc2)[C@H]2c3cc(C(=O)N4CCCC4)n(Cc4ccc(C)o4)c3C[C@H]2CN1C(=O)c1ccccc1    0.52
CCCCC(O)C1C=CC2C(=O)N(C3CCCCC3)C(=O)C2N1Nc1ccc(OC)cc1 (stereo not given)    0.684
O=C1OCCC/C=C\[C@H]2OC34C=CCN(Cn5nnc6ccccc65)C(=O)[C@H]3N(CCCCCO)C(=O)[C@@H]4C12 (stereo not given in full)    0.479
COc1cc2c(cc1O)C(C)N(Cc1cccc(OC(F)(F)F)c1)CC2 (stereo not given)    0.573
O=C1O[C@@H](c2ccccc2)[C@@H](c2ccccc2)N2[C@@H](c3ccc(OCCO)cc3)[C@]3(C(=O)Nc4ccccc43)[C@@H](C(=O)Nc3nc4ccccc4s3)[C@H]12    2.01
COC(=O)C(CC#Cc1ccc2c(c1)[C@]1(C(=O)N2)[C@H](C(=O)NC[C@H](O)c2ccccc2)[C@H]2C(=O)O[C@H](c3ccccc3)[C@H](c3ccccc3)N2[C@@H]1c1ccc(OCCO)cc1)C(=O)OC    1.1
O=C(CS)NCCCCCCNC(=O)[C@H]1C[C@H]2C(=O)NCC(=O)N2[C@H]1c1ccc(O)cc1    0.23
O=C1C[C@]2(c3ccc([N+](=O)[O-])cc3)C(=O)N(CC(F)(F)F)c3cc(CO)ccc3[C@H]2N1CC12CC3CC(CC(C3)C1)C2    0.255
CCC(CC)C(O)C1C=CC2C(=O)N(c3ccccc3)C(=O)C2N1Nc1ccc(C#N)cc1 (stereo not given)    1.51
O=C(CS)NCCCCCCNC(=O)[C@@H]1C[C@@H]2C(=O)N3CCC[C@H]3C(=O)N2[C@@H]1c1ccc(O)cc1    0.252
CC(C)=CCCC(C)=CC(O)C1C=CC2C(=O)N(c3ccccc3)C(=O)C2N1Nc1ccccc1 (stereo not given)    1.27
Cc1ccc(S[C@]2(C(=O)NC3CC3)CC(=O)N(C3CCCCC3)[C@@H]2c2ccc(CO)cc2I)cc1    0.427
C=C(C(=O)CC[C@H](OC(C)=O)c1ccc(OCCO)cc1)C(C)C    -0.944
C=CC[C@@]1(C(=O)NCC(O)CO)N=C(c2ccc(OCCCO)cc2)O[C@@H]1c1ccccc1N=[N+]=[N-] (stereo not given in full)    6.75
COCCOC(=O)N1C(=O)[C@@]2(c3cc(C#CCCO)ccc31)[C@H](c1ccc(O)cc1)N1[C@H](c3ccccc3)[C@H](c3ccccc3)OC(=O)[C@H]1[C@@H]2C(N)=O    0.311

Data provenance is PubChem BioAssay.
